I'd appreciate it if you could supply Potency values for the items below.
# target_system: Dual specificity protein kinase CLK4 (Homo sapiens) (UniProt Q9HAZ1)
# Sequence (Q9HAZ1 whole entry, looked up): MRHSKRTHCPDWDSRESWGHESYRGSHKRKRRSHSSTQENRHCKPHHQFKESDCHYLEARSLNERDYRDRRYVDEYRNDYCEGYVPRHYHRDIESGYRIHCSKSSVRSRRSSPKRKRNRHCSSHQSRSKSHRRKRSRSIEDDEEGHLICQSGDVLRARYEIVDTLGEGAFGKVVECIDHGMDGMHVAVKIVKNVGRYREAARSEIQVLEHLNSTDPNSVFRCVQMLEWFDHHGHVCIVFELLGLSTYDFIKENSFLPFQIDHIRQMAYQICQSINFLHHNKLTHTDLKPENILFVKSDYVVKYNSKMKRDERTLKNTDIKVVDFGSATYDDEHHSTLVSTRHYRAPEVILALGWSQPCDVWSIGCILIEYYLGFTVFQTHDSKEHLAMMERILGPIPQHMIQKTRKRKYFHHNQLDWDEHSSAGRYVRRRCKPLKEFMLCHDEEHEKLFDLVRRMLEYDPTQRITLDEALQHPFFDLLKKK
# protocol_text: Confirmation Assay for Inhibitors of CDC-like Kinase 4 (Kinase-Glo Assay)
# measurement_parameters: recombinant Clk4, Kinase-Glo ATP depletion luminescence; series mostly up to 47.7 µM
Inconclusive results are not listed. Calls of active or inactive are those of the source. Calls come from the whole dose curve; as a rule, active = well fitted inhibition curve with a large enough effect; inconclusive = small, poorly fitted or top-dose-only effect; inactive = flat fitted curve, though single readings scatter.

Query :: Reported Potency for "FC1(F)Oc2ccc(-c3ccc4ncnc(NCc5cccs5)c4c3)cc2O1" : what is it?
Result :: 18400 nM (active)

Query :: Reported Potency for "O=C(O)c1ccc(-c2ccc3ncnc(NCCc4cnc[nH]4)c3c2)o1" : what is it?
Result :: 923 nM (active)

Query :: Reported Potency for "Cc1cccc(CNc2ncnc3ccc(-c4cccnc4)cc23)c1" : what is it?
Result :: 3550 nM (active)

Query :: Reported Potency for "c1nc(NCCc2cnc[nH]2)c2ccc(-c3ccc4c(c3)OCO4)cc2n1" : what is it?
Result :: 10600 nM (active)

Query :: Reported Potency for "Cc1cccc(CNc2ncnc3ccc(-c4ccc5c(ccn5C)c4)cc23)c1" : what is it?
Result :: 39800 nM (active)

Query :: Reported Potency for "Cc1cc(CNc2ncnc3ccc(-c4ccc5c(c4)OCO5)cc23)c(C)o1" : what is it?
Result :: 119 nM (active)

Query :: Reported Potency for "Cc1nc(CSc2ncnc3ccc(-c4ccc5c(c4)OCO5)cc23)cs1" : what is it?
Result :: 184 nM (active)

Query :: Reported Potency for "Cn1ccc2cc(-c3ccc4ncnc(NCc5cccs5)c4c3)ccc21" : what is it?
Result :: 31600 nM (active)

Query :: Reported Potency for "Cc1nc(CNc2ncnc3ccc(-c4sc(C)nc4C)cc23)cs1" : what is it?
Result :: 1640 nM (active)

Query :: Reported Potency for "Cc1nc(CNc2ncnc3ccc(-c4oc(-c5ccccc5)nc4C)cc23)cs1" : what is it?
Result :: 2320 nM (active)

Query :: Reported Potency for "Cn1cncc1CNc1ncnc2ccc(-c3ccc4c(c3)OCO4)cc12" : what is it?
Result :: 75.2 nM (active)

Query :: Reported Potency for "Fc1cccc(CNc2ncnc3ccc(-c4ccoc4)cc23)c1" : what is it?
Result :: 3160 nM (active)

Query :: Reported Potency for "Cc1cccc(-c2ccc3ncnc(NCc4cccc(F)c4)c3c2)c1" : what is it?
Result :: 4470 nM (active)

Query :: Reported Potency for "COc1cccc(-c2ccc3ncnc(NCc4cccs4)c3c2)c1" : what is it?
Result :: 519 nM (active)

Query :: Reported Potency for "Cc1occc1CNc1ncnc2ccc(-c3ccc4c(c3)OCO4)cc12" : what is it?
Result :: 47.5 nM (active)

Query :: Reported Potency for "CCOC(=O)c1ccoc1-c1ccc2ncnc(NCc3ccc(C)o3)c2c1" : what is it?
Result :: 5820 nM (active)

Query :: Reported Potency for "Cc1nc(CNc2ncnc3ccc(-c4ccoc4)cc23)cs1" : what is it?
Result :: 232 nM (active)

Query :: Reported Potency for "COc1cccc(-c2ccc3ncnc(NCc4cccc(C)c4)c3c2)c1" : what is it?
Result :: 891 nM (active)

* * *

# target_system: Dual specificity protein kinase CLK4 (Homo sapiens) (UniProt Q9HAZ1)
# protocol_text: Confirmation Assay for Inhibitors of CDC-like Kinase 4 (Kinase-Glo Assay)
# measurement_parameters: recombinant Clk4, Kinase-Glo ATP depletion luminescence; series mostly up to 47.7 µM
Records with an inconclusive call do not appear. Calls of active or inactive are those of the source. Calls come from the whole dose curve; as a rule, active = well fitted inhibition curve with a large enough effect; inconclusive = small, poorly fitted or top-dose-only effect; inactive = flat fitted curve, though single readings scatter.
measurement_label: Potency

Query :: Reported Potency for "c1csc(CNc2ncnc3ccc(-c4ccoc4)cc23)c1" : what is it?
Result :: 184 nM (active)

Query :: Reported Potency for "CN(Cc1cncn1C)c1ncnc2ccc(-c3ccc4c(c3)OCO4)cc12" : what is it?
Result :: 292 nM (active)

Query :: Reported Potency for "Fc1cccc(CNc2ncnc3ccc(-c4cccc(Cl)c4)cc23)c1" : what is it?
Result :: 7080 nM (active)

Query :: Reported Potency for "Cc1nc(C)c(-c2ccc3ncnc(NCc4ncc[nH]4)c3c2)s1" : what is it?
Result :: 1840 nM (active)

Query :: Reported Potency for "c1csc(CCNc2ncnc3ccc(-c4ccc5c(c4)OCO5)cc23)c1" : what is it?
Result :: 46.3 nM (active)

Query :: Reported Potency for "CN(Cc1nccs1)c1ncnc2ccc(-c3ccc4c(c3)OCO4)cc12" : what is it?
Result :: 37.7 nM (active)
